Test System: Beta-secretase 1 (Homo sapiens)
Sequence (P56817 whole entry): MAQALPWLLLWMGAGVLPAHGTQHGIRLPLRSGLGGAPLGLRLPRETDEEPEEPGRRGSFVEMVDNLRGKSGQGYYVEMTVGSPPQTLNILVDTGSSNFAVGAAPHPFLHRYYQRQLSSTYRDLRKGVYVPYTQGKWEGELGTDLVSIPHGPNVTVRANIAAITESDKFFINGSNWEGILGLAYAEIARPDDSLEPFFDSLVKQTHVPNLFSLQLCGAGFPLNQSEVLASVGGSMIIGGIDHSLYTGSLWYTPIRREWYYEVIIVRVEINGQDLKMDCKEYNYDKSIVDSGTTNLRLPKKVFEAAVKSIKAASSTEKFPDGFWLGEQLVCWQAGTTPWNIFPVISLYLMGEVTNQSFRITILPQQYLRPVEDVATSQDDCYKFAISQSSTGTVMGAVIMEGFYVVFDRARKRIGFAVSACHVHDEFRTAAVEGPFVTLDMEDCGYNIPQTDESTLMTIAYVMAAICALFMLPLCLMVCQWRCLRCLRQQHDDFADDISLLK
Test Details: Inhibition of BACE1 (unknown origin) by Alpha screen assay
Each record is given true (1) if its reported IC50 is strictly below 600 nM. Records at or above 600 nM are given false (0).

{"Molecule": "CC1(C)Cc2cc(Cl)ccc2C(NC(Cc2ccsc2Br)C(=O)O)=N1 (stereo not given)", "Category Label": "false (0)"}

Identify whether the molecule CC1(C)Cc2cc(Cl)ccc2C(NC(Cc2cscc2-c2cn[nH]c2)C(=O)O)=N1 (stereo not given) records IC50 below 600 nM.
true (1)

Identify whether the molecule CC1(C)Cc2cc(Cl)ccc2C(NC(Cc2cscc2Br)C(=O)O)=N1 (stereo not given) records IC50 below 600 nM.
true (1)

Identify whether the molecule CC1(C)Cc2cc(Cl)ccc2C(NC(Cc2cscc2-c2cc[nH]n2)C(=O)O)=N1 (stereo not given) records IC50 below 600 nM.
false (0)

Identify whether the molecule Cn1cc(-c2cscc2CC(NC2=NC(C)(C)Cc3cc(Cl)ccc32)C(=O)O)cn1 (stereo not given) records IC50 below 600 nM.
false (0)

Identify whether the molecule CCCc1scc(-c2cn[nH]c2)c1CC(NC1=NC(C)(C)Cc2cc(Cl)ccc21)C(=O)O (stereo not given) records IC50 below 600 nM.
true (1)

Identify whether the molecule CC1(C)Cc2cc(Cl)ccc2C(NC(Cc2cscc2-c2ccncc2)C(=O)O)=N1 (stereo not given) records IC50 below 600 nM.
false (0)

Identify whether the molecule CC1(C)Cc2cc(Cl)ccc2C(NC(Cc2cscc2CCC2CC2)C(=O)O)=N1 (stereo not given) records IC50 below 600 nM.
true (1)

Identify whether the molecule CCc1cscc1CC(NC1=NC(C)(C)Cc2cc(Cl)ccc21)C(=O)O (stereo not given) records IC50 below 600 nM.
false (0)

Identify whether the molecule CC#Cc1cscc1CC(NC1=NC(C)(C)Cc2cc(Cl)ccc21)C(=O)O (stereo not given) records IC50 below 600 nM.
true (1)

----------
Test System: Beta-secretase 1 (Homo sapiens)
Test Details: Inhibition of BACE1 (unknown origin) by Alpha screen assay
Value Kind: pIC50
# reply with the number alone; pIC50 is -log10 of concentration in mol/L

{"Compound": "C#Cc1cscc1CC(NC1=NC(C)(C)Cc2cc(Cl)ccc21)C(=O)O (stereo not given)", "Endpoint Value": 6.12}

Endpoint output: pIC50 of CC1(C)Cc2cc(Cl)ccc2C(N[C@H](Cc2ccccc2)C(=O)O)=N1 . Value?
3.58

Endpoint output: pIC50 of CCCc1scc(-c2cn[nH]c2)c1CC(NC1=NC(C)(C)Cc2cc(Cl)ccc21)c1nccc(=O)[nH]1 (stereo not given) . Value?
6.39

Endpoint output: pIC50 of CC1(C)Cc2cc(Cl)ccc2C(NC(Cc2ccsc2)C(=O)O)=N1 (stereo not given) . Value?
5.54

Endpoint output: pIC50 of CC1(C)Cc2cc(Cl)ccc2C(NC(Cc2cscc2-c2ncco2)C(=O)O)=N1 (stereo not given) . Value?
6.09

----------
Assay system Cathepsin D (Homo sapiens); read-out recorded as IC50.

{"Molecule": "CCCc1scc(-c2cn[nH]c2)c1CC(NC1=NC(C)(C)Cc2cc(Cl)ccc21)c1nccc(=O)[nH]1 (configuration not stated)", "Test System": "Cathepsin D (Homo sapiens)", "IC50": "> 30 µM"}

Please examine the following record next.
Endpoint output: IC50 of CCCc1scc(-c2cn[nH]c2)c1CC(NC1=NC(C)(C)Cc2cc(Cl)ccc21)C(=O)O (configuration not stated) . Value?
> 30 µM
